# System: carbon tetrachloride (CCl4) induced liver damage
# Method description: Effect on carbon tetrachloride (CCl4) induced liver damage (liver cell necrosis type)
# Type: in vivo, Male Wistar rats
# Condition parameters: Rattus norvegicus, sc, 24 h, s.c., 50 μg/kg; plasma GPT after 24 hr; read-out: inhibition rate GPT
We use 9% as the dividing line for inhibition in vivo at 0.05 mg/kg: on or above the line is y, below is n.

Exercise: API: above_or_equal(metric=inhibition in vivo at 0.05 mg/kg, cutoff=9%) for item CCCC1CC([C@H](O)/C=C/[C@H]2[C@H](O)CC(=O)[C@@H]2CC(=O)CCCCC(=O)OC)C1 (some centres unmarked)
Solution: y

Exercise: Hi, just wondering whether CCC1CC([C@H](O)/C=C/[C@H]2[C@H](O)CC(=O)[C@@H]2CC(=O)CCCCC(=O)OC)C1 (some centres unmarked) shows inhibition in vivo at 0.05 mg/kg of 9% or higher.
Solution: n

Exercise: inhibition in vivo at 0.05 mg/kg >= 9% for CCC1CCC([C@H](O)/C=C/[C@H]2[C@H](O)CC(=O)[C@@H]2CC(=O)CCCCC(=O)OC)CC1 (some centres unmarked) ?
Solution: y

Exercise: Can CCCC1CCC([C@H](O)/C=C/[C@H]2[C@H](O)CC(=O)[C@@H]2CC(=O)CCCCC(=O)OC)CC1 (some centres unmarked) be said to have inhibition in vivo at 0.05 mg/kg at or above 9%?
Solution: y
